test: recombinant UMI read abundance after kanamycin selection (control-corrected) (log10(CPM+1)); higher = more efficient recombination; extreme values may be limits of the assay; sequences stand for … in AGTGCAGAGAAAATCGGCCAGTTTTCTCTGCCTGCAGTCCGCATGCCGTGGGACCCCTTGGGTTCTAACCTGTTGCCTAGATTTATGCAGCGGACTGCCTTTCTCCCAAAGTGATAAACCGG…AGGTTGGTTTCACT; site = the 11-nt donor;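 further: IS621 bridge recombinase in Escherichia coli cells against a fixed T5 target plasmid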
readout.label: recombinant UMI read abundance (log10)

[[record]]
residue_string = "TGATAATCATGGACCGGTTTTCCCGGTAATCCGTATTTGCT (site CGATCATCTAG)"
numeric_readout = 0

[[record]]
residue_string = "GACACGCCATGGACCGGTTTTCCCGGTAATCCGTATTTGTA (site GCCACGCCTTA)"
numeric_readout = 0.176

[[record]]
residue_string = "ATTGTATCATGGACCGGTTTTCCCGGTAATCCGTATTTGAG (site ATTGTATCTCT)"
numeric_readout = 1.59

[[record]]
residue_string = "CCCGACACATGGACCGGTTTTCCCGGTAATCCGTATTTGTA (site CCCGACACTTA)"
numeric_readout = 0.974

[[record]]
residue_string = "TATTTGGCATGGACCGGTTTTCCCGGTAATCCGTATTTGAG (site TATTTGGCTCA)"
numeric_readout = 0.0138

[[record]]
residue_string = "GCTGTTCCATGGACCGGTTTTCCCGGTAATCCGTATTTGGT (site GCTGTTCCTAC)"
numeric_readout = 0

[[record]]
residue_string = "CTGGAACCATGGACCGGTTTTCCCGGTAATCCGTATTTGAT (site CCGGAACCTAT)"
numeric_readout = 0

[[record]]
residue_string = "ACCGTCTCATGGACCGGTTTTCCCGGTAATCCGTATTTGCA (site ACAGTATCTTG)"
numeric_readout = 0.902

[[record]]
residue_string = "CCCACCCCATGGACCGGTTTTCCCGGTAATCCGTATTTGGC (site CCCACCCCTGC)"
numeric_readout = 0

[[record]]
residue_string = "CAAATACCATGGACCGGTTTTCCCGGTAATCCGTATTTGAC (site CAAATACCTGT)"
numeric_readout = 0

[[record]]
residue_string = "GAGCTCACATGGACCGGTTTTCCCGGTAATCCGTATTTGAA (site GAGCTCACTGT)"
numeric_readout = 0.716

[[record]]
residue_string = "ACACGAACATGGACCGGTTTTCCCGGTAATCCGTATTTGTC (site ACATGAACTGA)"
numeric_readout = 0

[[record]]
residue_string = "CGGACATCATGGACCGGTTTTCCCGGTAATCCGTATTTGTT (site CGGACATCTAA)"
numeric_readout = 2.07

[[record]]
residue_string = "AATCTGTCATGGACCGGTTTTCCCGGTAATCCGTATTTGAC (site AATCTGTCTGT)"
numeric_readout = 0

[[record]]
residue_string = "TACTTTACATGGACCGGTTTTCCCGGTAATCCGTATTTGCT (site TACTTTACTAG)"
numeric_readout = 1.01

[[record]]
residue_string = "GGCTTGGCATGGACCGGTTTTCCCGGTAATCCGTATTTGGT (site GGCTTGGCTAC)"
numeric_readout = 0.216

[[record]]
residue_string = "CTCTACACATGGACCGGTTTTCCCGGTAATCCGTATTTGCC (site CTCTACACTCG)"
numeric_readout = 0.0134

[[record]]
residue_string = "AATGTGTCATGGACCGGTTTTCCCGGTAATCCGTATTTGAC (site AATGTGTCTCT)"
numeric_readout = 0.028


Reference for the values: the supplement of paper PMC11208160
